# target or system: human Claudin18.2 (human)
# protocol description: cell-based or functional assay
endpoint label: CDC % Relative activity (%)
Answer with a number only, understood to be in %.

Please review the entries below; each comes with its answer.
>>> assay_result("412B6E4 (antibody, V domains shown) VH: DVQLVESGGGLVQPGGSRKLSCAASGFTFSSFGVHWVRQAPEKGLEWVAYISSGSSTIYYAHSVKGRFTISRDNPKNTLFLQMTSLGSEDTATYYCARFYYGNSFAYWGQGTLVTVSA VL: DIVMTQSPSSLTVTAGEKVTMSCKSSQSLLNSGNQKNYLTWYQQKPGQPPKMLIYWASTRESGVPDRFTGSGSGTDFTLTISSVQAEDLAVYYCQNAYTYPLTFGAGTRLELK")
577
>>> assay_result("243B4F2 (antibody, V domains shown) VH: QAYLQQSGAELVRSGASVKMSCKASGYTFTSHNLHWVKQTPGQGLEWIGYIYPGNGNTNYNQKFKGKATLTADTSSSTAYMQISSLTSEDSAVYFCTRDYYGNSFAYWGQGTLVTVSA VL: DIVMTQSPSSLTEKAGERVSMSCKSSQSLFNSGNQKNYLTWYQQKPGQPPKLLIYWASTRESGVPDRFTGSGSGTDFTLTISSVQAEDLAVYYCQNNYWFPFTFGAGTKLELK")
134
>>> assay_result("406E1H7 (antibody, V domains shown) VH: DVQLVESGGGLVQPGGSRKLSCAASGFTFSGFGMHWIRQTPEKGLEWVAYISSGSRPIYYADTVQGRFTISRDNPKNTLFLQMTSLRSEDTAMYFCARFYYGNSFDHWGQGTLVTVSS VL: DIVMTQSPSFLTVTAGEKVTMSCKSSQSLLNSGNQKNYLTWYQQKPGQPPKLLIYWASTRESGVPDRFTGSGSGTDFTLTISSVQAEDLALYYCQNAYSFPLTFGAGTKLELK")
125
>>> assay_result("275H9A2 (antibody, V domains shown) VH: QAYLQQSGAELVRSGASVKMSCRASGYSFTSHNMHWVKQTPGQGLEWIGYIYPGNGGSYYNQKFKGKAILTADTSSSTAYMQISSLTSEDSAVYFCTRDYYGNSFVYWGQGTLVTVSA VL: DVVMTQSPSSLTEKTGEKVSMSCKSSQSLLNSGNQKNYLTWYQQKPGQPPKLLIYWASTRESGVPDRFTGSGSGTDFTLTISSLQTEDLAVYYCQNNFRYPFTFGAGTKLELK")
142

Moving on to another binder below.
Q: What measured CDC % Relative activity goes with 244A1B8 (antibody, V domains shown) VH: QAYLQQSGAELVRSGASVKMSCKASGYTFTSHNIHWVKQTPGQGLEWIGYIYPGNGAPNYNQKFRGKATLTADTSSSTAYMQISSLTSEDSAVYFCARDYYGNSFVYWGQGTLVTVSA VL: DIVMTQSPSSLTEKAGEKVSMSCKSSQSLLNSGNQKNYLTWYQQKPGQPPKLLIYWASTRESGVPDRFTGSGSGTDFTLTISSVQAEDLAVYYCQNDYRYPFTFGAGTKLELK ?
A: 102

From: patent US20220073643A1
